// data source = ChEMBL document CHEMBL5303300

- Test system: U2OS
- Protocol Summary: Multiplex assay against U2OS
- Format: toxicity, cell-based
- Recorded Conditions: human, 12 h, 1 µM, compound concentration 1 uM, number of replicates 2
Assay Readout: Population Membrane Permeable-Phenotype (%)
Number first, unit second: that is the form wanted.

QUERY: Give the value of Population Membrane Permeable-Phenotype (%) reported for the following: NCC1CCC(CNc2nc(NCc3ccccc3OC(F)(F)F)ncc2[N+](=O)[O-])CC1 (stereo not given)
RESULT: 7%

QUERY: Output measured Population Membrane Permeable-Phenotype (%) for this item: Cc1cc(NC(=O)c2cccc(NC(=O)/C=C/CN(C)C)c2)ccc1Nc1nccc(-c2cccnc2)n1
RESULT: 0%

QUERY: Check the records and state Population Membrane Permeable-Phenotype (%) for Cc1cccc(S(=O)(=O)N(C)[C@H](C)CCN2CCC(C)CC2)c1.Cl
RESULT: 0%

QUERY: Supply recorded Population Membrane Permeable-Phenotype (%) for CN1CCCN(C(=O)c2cccc(-c3ccc(/C=C4/C(=O)Nc5ccc(Cl)cc54)o3)c2)CC1 here.
RESULT: 0%

QUERY: Return the recorded Population Membrane Permeable-Phenotype (%) value; entry: CCN1CCN(Cc2ccc(C(=O)Nc3ccc(C)c(Oc4ccc5c(c4)CC(=O)N5)c3)cc2C(F)(F)F)CC1.Cl.Cl
RESULT: 0%
